- System: NCI-H522 lung
- method notes: NCI-60 one-dose screen, 48 h (100 = growth as untreated, 0 = no growth, -100 = all killed)
- particulars: 10 µM unless noted
- Procedure: Growth inhibition of the NCI-H522 human Non-Small Cell Lung tumor cell line is measured as a screen for anti-cancer activity. Cells are grown in 96 well plates and exposed to the test compound for 48 hours. Compounds are tested at a single concentration, which is 10^-5 M for most compounds. The reported endpoint is percent growth (GI% or GIPRCNT), where numbers from 0 - 100% represent growth inhibition, and numbers from -100% - 0 represent cell death. […]
This is part of a sample that, as a whole, favours compounds with a hit. Of some 83,000 tested, about 20% had one in any assay. Calls of active or inactive are those of the source. How the source made its calls: active means growth percent below 10; inactive means the rest.
quantity measured: growth

Example compounds with recorded growth:
[
  {
    "molecular string": "C=C1SC(=Nc2ccccc2Cl)N(C(=O)c2sc3ccccc3c2Cl)C1(C)C",
    "tested system": "NCI-H522 lung",
    "growth": "91.6% (inactive)"
  },
  {
    "molecular string": "COc1ccc2cc(-c3nc4ccc(C)cn4c3NCc3ccco3)c(=O)[nH]c2c1",
    "tested system": "NCI-H522 lung",
    "growth": "87.3% (inactive)"
  },
  {
    "molecular string": "COc1ccc(/C=N/Nc2c3ccccc3nc3ccccc23)cc1",
    "tested system": "NCI-H522 lung",
    "growth": "90.7% (inactive)"
  }
]

Would you mind listing growth for each of the following compounds?
1. Cc1ccc(Cc2cnc(NC(=O)/C=C/c3ccc(C)o3)s2)cc1
2. O=C1/C(=C/c2cccc(Br)c2)COc2ccc(O)cc21
3. COc1cc(/C=C/C(=O)c2cc(OC)c(OC)c(OC)c2)ccc1Oc1nc2c(c(=O)n(C)c(=O)n2C)n1C

### Response
1: 19.3% (inactive); 2: 18.9% (inactive); 3: -68.7% (active)

Data provenance is PubChem BioAssay (NCI).
